Listing: koff of selected binders
# tested-target: T1, cTnI quality control product recombinant protein (human, UniProt P19429 1-210, limits assumed)
# T1 construct: the assay paragraphs only say cTnI; also called cardiac troponin I; cTnI antigen
# T1 sequence (P19429 whole entry): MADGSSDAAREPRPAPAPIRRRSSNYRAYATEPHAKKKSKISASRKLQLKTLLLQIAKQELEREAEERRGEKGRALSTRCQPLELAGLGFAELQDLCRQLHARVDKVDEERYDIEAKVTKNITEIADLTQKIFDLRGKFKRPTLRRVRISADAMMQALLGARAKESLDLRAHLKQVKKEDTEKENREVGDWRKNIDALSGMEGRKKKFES
# assay-comment: AMC biosensor, antibody on sensor
The figure you give is taken to be in s⁻¹; do not add the unit.

binder	unit-symbol	assay-value
Mutation 1-41 (antibody, V domains shown) VH: QVQLQQSGTELAKPGASVKFSCKASGYTFSSYWMYWIKQRPGQGLEWIGYINPSTGHTDYNQRFKDKATLTADKSSSTAYMQLNSLTSEDSAVYYCARRYYGPFGMDYWGQGTSVTVSS VL: EIFLTQSPAIMSASPGEKVTMTCSASTSVSYVHWYQQKSGTSPKRWIYDTSKIASGIPVRFSGSGSGTSYSLTISSMEAEDAATYYCQQWSSQPYTFGGGTKLEIKR	s⁻¹	6.06e-05

Inquiry: Fill in reported koff for this entry: WT 1-8 (antibody, V domains shown) VH: QVQLQQSGTELAKPGASVKFSCKASDYTFSTYWMYWIKQRPGQGLEWIGYINPSTGHTEYNQKFKDKATLTADKSSSTAYMQLNSLTSEDSAVYYCARRYWGPFAMDYWGQGTSVTVSS VL: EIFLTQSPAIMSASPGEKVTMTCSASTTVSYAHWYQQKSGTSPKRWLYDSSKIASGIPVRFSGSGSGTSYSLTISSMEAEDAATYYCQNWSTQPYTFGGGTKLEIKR
Reply text: 0.00221

Inquiry: Fill in reported koff for this entry: Mutation 1-19 (antibody, V domains shown) VH: QVQLQQSGTELAKPGASVKFSCKASGYTFTSYWMYWIKQRPGQGLEWIGYLNPSTGHTDYNQKFKDKATLTADKSSSTAYMQLNSLTSEDSAVYYCARRYYGPFGMDYWGQGTSVTVSS VL: EIFLTQSPAIMSASPGEKVTMTCSASSSVSYVHWYQQKSGTSPKRWIYDTSKLASGIPVRFSGSGSGTSYSLTISSMEAEDAATYYCQQWSSQPYTFGGGTKLEIKR
Reply text: 7.12e-05
